Test system: HT-29
Assay: Cytotoxicity against human HT29 cells by SRB assay
Format: functional, cell-based
Kindly state IC50 for each of the entries shown.
Give bare numbers, in nM.

# Compound Smiles, IC50 (nM)
measured = [
    ("CC(=O)O[C@@H]1C[C@@H]2[C@@]3(C)CCCC(C)(C)[C@@H]3CC[C@@]2(C)[C@@H]2CC=C3C(=O)OC[C@@H]3[C@@]12C", 2340),
    ("CC(=O)O[C@@H]1OC=C2[C@@H](OC(C)=O)C[C@H]3[C@]4(C)CC[C@H]5C(C)(C)CCC[C@]5(C)[C@H]4C[C@@H](O)[C@]3(C)[C@H]21", 390),
    ("CC(=O)O[C@@H]1OC(=O)C=C1[C@H]1CC=C(CC/C=C(\\C)CCC2=C(C)CCCC2(C)C)[C@H](O)O1", 760),
]

## Input Look up IC50: "CC1(C)CCC[C@]2(C)[C@H]3C[C@@H](O)[C@]4(C)[C@H]5COC(=O)C5=CC[C@H]4[C@]3(C)CC[C@@H]12"
## Output 910

All values here come from ChEMBL document CHEMBL1148934.
